Test system: Plasmodium falciparum
Experiment: Antimalarial activity against chloroquine-resistant Plasmodium falciparum W2 by LDH assay
Type: functional, organism-based
Conditions: Plasmodium falciparum, W2; read-out: IC50
Use IC50 to assign classes; range list: bottom: < 2 µg/mL; middle: ≥ 2 µg/mL and < 3 µg/mL; top: ≥ 3 µg/mL

Answered cases to consult:
COc1cc(NC(C)CCCNC(=S)NCCCC(C)Nc2cc(OC)cc3cccnc23)c2ncccc2c1.Cl.Cl (configuration not stated)	middle
COc1cc(NC(C)CCCNC(=O)c2cccc(C(=O)NCCCC(C)Nc3cc(OC)cc4ccc(C(C)(C)C)nc34)n2)c2nc(C(C)(C)C)ccc2c1.Cl (configuration not stated)	top

Ask: Quick check: band for COc1cc(NC(C)CCCNCC(=O)NCCCC(C)Nc2cc(OC)cc3ccc(C(C)(C)C)nc23)c2nc(C(C)(C)C)ccc2c1.Cl.Cl (configuration not stated)
Reply: bottom
